test_summary: qHTS assay to identify small molecule antagonists of the androgen receptor (AR) signaling pathway - cell viability counter screen (AID 743033; note: nearly all actives have a fitted effect of over 45% in size; note: potency is the fitted concentration of half-maximal effect)
assay_context: AR-bla HEK293 viability, CellTiter-Glo luminescence, 16 h; series mostly up to 58.5 µM
Inconclusive results are not listed. Activity calls are given as the source filed them. Calls come from the whole dose curve; as a rule, active = well fitted cell-killing curve with a large enough effect in the repeat runs; inconclusive = weak or mixed curves; inactive = no such curve, though single readings can be large or run the other way.
measurement_label: Potency

molecule: Clc1ccc(C(Cn2ccnc2)OCc2ccsc2Cl)c(Cl)c1 (stereo unspecified)
measurement_label: Potency
recorded_value: 26.8 µM (active)
//
molecule: COC(=O)C1=C(C)NC(C)=C(C(=O)OCCCN2CCC(c3ccccc3)(c3ccccc3)CC2)C1c1cccc([N+](=O)[O-])c1 (stereo unspecified)
measurement_label: Potency
recorded_value: 21.3 µM (active)
//
molecule: O=C(O)Cc1ccc(OCCNC[C@H](O)c2ccccc2)cc1
measurement_label: Potency
recorded_value: inactive
//
molecule: O=C1OC(=O)c2cccc3cccc1c23
measurement_label: Potency
recorded_value: inactive
//
molecule: CC(=O)Oc1ccc(C2(c3ccc(OC(C)=O)cc3)Oc3ccccc3NC2=O)cc1
measurement_label: Potency
recorded_value: inactive

Identify measured Potency associated with `CN(C)c1ccc(N=Nc2ccccc2C(=O)O)cc1` inactive

Identify measured Potency associated with `O=C(Oc1ccccc1)c1cccc(C(=O)Oc2ccccc2)c1` inactive

Identify measured Potency associated with `CC(C)(C)c1cc(/C=C2\SC(=N)NC2=O)cc(C(C)(C)C)c1O` 49 µM (active)
